In this section, each of the molecules is paired with its reported viability, T/C.
# Tested on: LG0703-F948-PDC spheroids with HUVEC/MSC, viability
# test_protocol: Anticancer human tumor LG0703-F948-PDC patient-derived lung adenocarcinoma cell line growth inhibition [IpAb]
# cond: second compound 0.1 µM; first compound 10 µM; active compounds read low

molecule	unit	viability, T/C
Cn1ncc(Cl)c1-c1cc(C(=O)NC(CN)Cc2cccc(F)c2)sc1Cl (stereo not given) + CC(C)NCC(C(=O)N1CCN(c2ncnc3c2C(C)CC3O)CC1)c1ccc(Cl)cc1	%	0.11
C=CC(=O)N1CCN(c2nc(=O)n(-c3c(C)ccnc3C(C)C)c3nc(-c4c(O)cccc4F)c(F)cc23)C(C)C1 (stereo not given) + CC(C)NCC(C(=O)N1CCN(c2ncnc3c2C(C)CC3O)CC1)c1ccc(Cl)cc1	%	54.3
CCCS(=O)(=O)Nc1ccc(F)c(C(=O)c2c[nH]c3ncc(-c4ccc(Cl)cc4)cc23)c1F + CC(C)NCC(C(=O)N1CCN(c2ncnc3c2C(C)CC3O)CC1)c1ccc(Cl)cc1	%	67.5
C=CC(=O)N1CCN(c2nc(=O)n(-c3c(C)ccnc3C(C)C)c3nc(-c4c(O)cccc4F)c(F)cc23)C(C)C1 (stereo not given) + CCN1CCN(Cc2ccc(Nc3ncc(F)c(-c4cc(F)c5nc(C)n(C(C)C)c5c4)n3)nc2)CC1	%	73
Cn1nccc1Nc1nccc(-c2ccn(C(CO)c3ccc(Cl)c(F)c3)c(=O)c2)n1 (stereo not given) + CCN1CCN(Cc2ccc(Nc3ncc(F)c(-c4cc(F)c5nc(C)n(C(C)C)c5c4)n3)nc2)CC1	%	46.6
C=CCn1c(=O)c2cnc(Nc3ccc(N4CCN(C)CC4)cc3)nc2n1-c1cccc(C(C)(C)O)n1 + CCN1CCN(Cc2ccc(Nc3ncc(F)c(-c4cc(F)c5nc(C)n(C(C)C)c5c4)n3)nc2)CC1	%	4.26
C=CCn1c(=O)c2cnc(Nc3ccc(N4CCN(C)CC4)cc3)nc2n1-c1cccc(C(C)(C)O)n1 + CC(C)NCC(C(=O)N1CCN(c2ncnc3c2C(C)CC3O)CC1)c1ccc(Cl)cc1	%	4.37
Cc1nc(NC(=O)N2CCCC2C(N)=O)sc1-c1ccnc(C(C)(C)C(F)(F)F)c1 (stereo not given) + CC(C)NCC(C(=O)N1CCN(c2ncnc3c2C(C)CC3O)CC1)c1ccc(Cl)cc1	%	2.44
CC1(C)CCC(CN2CCN(c3ccc(C(=O)NS(=O)(=O)c4ccc(NCC5CCOCC5)c([N+](=O)[O-])c4)c(Oc4cnc5[nH]ccc5c4)c3)CC2)=C(c2ccc(Cl)cc2)C1 + CCN1CCN(Cc2ccc(Nc3ncc(F)c(-c4cc(F)c5nc(C)n(C(C)C)c5c4)n3)nc2)CC1	%	11.3
CCCS(=O)(=O)Nc1ccc(F)c(C(=O)c2c[nH]c3ncc(-c4ccc(Cl)cc4)cc23)c1F + CCN1CCN(Cc2ccc(Nc3ncc(F)c(-c4cc(F)c5nc(C)n(C(C)C)c5c4)n3)nc2)CC1	%	59.1

----------
# Test system: LG0703-F948-PDC spheroids with HUVEC/MSC, viability
# test_protocol: Anticancer human tumor LG0703-F948-PDC cell line growth inhibition [IpAb];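 also: spheroids exposed to compounds for seven days before readout; T/C percent relative to DMSO vehicle wells set as 100% viability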
# cond: second compound 0.1 µM; first compound 1 µM; active compounds read low
Decide using viability, T/C alone. Strictly below 50%: y. Equal to or above 50%: n.

compound	class
CCCS(=O)(=O)Nc1ccc(F)c(C(=O)c2c[nH]c3ncc(-c4ccc(Cl)cc4)cc23)c1F + CCN1CCN(Cc2ccc(Nc3ncc(F)c(-c4cc(F)c5nc(C)n(C(C)C)c5c4)n3)nc2)CC1	n
C=CCn1c(=O)c2cnc(Nc3ccc(N4CCN(C)CC4)cc3)nc2n1-c1cccc(C(C)(C)O)n1 + CCN1CCN(Cc2ccc(Nc3ncc(F)c(-c4cc(F)c5nc(C)n(C(C)C)c5c4)n3)nc2)CC1	n
Cn1ncc(Cl)c1-c1cc(C(=O)NC(CN)Cc2cccc(F)c2)sc1Cl (stereo unspecified) + CC(C)NCC(C(=O)N1CCN(c2ncnc3c2C(C)CC3O)CC1)c1ccc(Cl)cc1	n
Cc1nc(NC(=O)N2CCCC2C(N)=O)sc1-c1ccnc(C(C)(C)C(F)(F)F)c1 (stereo unspecified) + CCN1CCN(Cc2ccc(Nc3ncc(F)c(-c4cc(F)c5nc(C)n(C(C)C)c5c4)n3)nc2)CC1	y
CC1(C)CCC(CN2CCN(c3ccc(C(=O)NS(=O)(=O)c4ccc(NCC5CCOCC5)c([N+](=O)[O-])c4)c(Oc4cnc5[nH]ccc5c4)c3)CC2)=C(c2ccc(Cl)cc2)C1 + CC(C)NCC(C(=O)N1CCN(c2ncnc3c2C(C)CC3O)CC1)c1ccc(Cl)cc1	n
Cn1ncc(Cl)c1-c1cc(C(=O)NC(CN)Cc2cccc(F)c2)sc1Cl (stereo unspecified) + CCN1CCN(Cc2ccc(Nc3ncc(F)c(-c4cc(F)c5nc(C)n(C(C)C)c5c4)n3)nc2)CC1	y

----------
# System: LG0703-F948-PDC spheroids with HUVEC/MSC, viability
# test_protocol: Anticancer human tumor LG0703-F948-PDC cell line growth inhibition [IpAb];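 also: spheroids exposed to compounds for seven days before readout; T/C percent relative to DMSO vehicle wells set as 100% viability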
# cond: second compound 0.1 µM; first compound 0.0316 µM; active compounds read low
# Protocol: Combinatorial screen of targeted agents with ipatasertib and abemaciclib in multi-cell type tumor spheroids […] Compounds. […] If the clinical Cmax for an agent had not been determined, the highest concentration tested was 10 microM. NCI60 Cell Culture. […] The optimal seeding densities for each of the cell lines at each time point assessed were determined prior to performing the concentration response studies. […]
Listed here are compounds together with their documented viability, T/C.

compound	viability, T/C
Cn1ncc(Cl)c1-c1cc(C(=O)NC(CN)Cc2cccc(F)c2)sc1Cl (stereo not drawn) + CC(C)NCC(C(=O)N1CCN(c2ncnc3c2C(C)CC3O)CC1)c1ccc(Cl)cc1	75.9%
CC1(C)CCC(CN2CCN(c3ccc(C(=O)NS(=O)(=O)c4ccc(NCC5CCOCC5)c([N+](=O)[O-])c4)c(Oc4cnc5[nH]ccc5c4)c3)CC2)=C(c2ccc(Cl)cc2)C1 + CC(C)NCC(C(=O)N1CCN(c2ncnc3c2C(C)CC3O)CC1)c1ccc(Cl)cc1	90.8%
Cn1ncnc1[C@H]1c2n[nH]c(=O)c3cc(F)cc(c23)N[C@@H]1c1ccc(F)cc1 + CC(C)NCC(C(=O)N1CCN(c2ncnc3c2C(C)CC3O)CC1)c1ccc(Cl)cc1	68.6%

----------
# viability, T/C per entry
# Test system: LG0703-F948-PDC spheroids with HUVEC/MSC, viability
# test_protocol: Anticancer human tumor LG0703-F948-PDC cell line growth inhibition [IpAb];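 also: spheroids exposed to compounds for seven days before readout; T/C percent relative to DMSO vehicle wells set as 100% viability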
# cond: second compound 10 µM; first compound 10 µM; active compounds read low
value_kind: viability, T/C

compound	result
Cc1nc(NC(=O)N2CCCC2C(N)=O)sc1-c1ccnc(C(C)(C)C(F)(F)F)c1 (configuration not stated) + CC(C)NCC(C(=O)N1CCN(c2ncnc3c2C(C)CC3O)CC1)c1ccc(Cl)cc1	1.55%
Cn1nccc1Nc1nccc(-c2ccn(C(CO)c3ccc(Cl)c(F)c3)c(=O)c2)n1 (configuration not stated) + CC(C)NCC(C(=O)N1CCN(c2ncnc3c2C(C)CC3O)CC1)c1ccc(Cl)cc1	3.23%
CC1(C)CCC(CN2CCN(c3ccc(C(=O)NS(=O)(=O)c4ccc(NCC5CCOCC5)c([N+](=O)[O-])c4)c(Oc4cnc5[nH]ccc5c4)c3)CC2)=C(c2ccc(Cl)cc2)C1 + CC(C)NCC(C(=O)N1CCN(c2ncnc3c2C(C)CC3O)CC1)c1ccc(Cl)cc1	3.65%
Cn1ncc(Cl)c1-c1cc(C(=O)NC(CN)Cc2cccc(F)c2)sc1Cl (configuration not stated) + CC(C)NCC(C(=O)N1CCN(c2ncnc3c2C(C)CC3O)CC1)c1ccc(Cl)cc1	0.15%
C=CCn1c(=O)c2cnc(Nc3ccc(N4CCN(C)CC4)cc3)nc2n1-c1cccc(C(C)(C)O)n1 + CC(C)NCC(C(=O)N1CCN(c2ncnc3c2C(C)CC3O)CC1)c1ccc(Cl)cc1	6.51%
C=CC(=O)N1CCN(c2nc(=O)n(-c3c(C)ccnc3C(C)C)c3nc(-c4c(O)cccc4F)c(F)cc23)C(C)C1 (configuration not stated) + CC(C)NCC(C(=O)N1CCN(c2ncnc3c2C(C)CC3O)CC1)c1ccc(Cl)cc1	22.5%
CCCS(=O)(=O)Nc1ccc(F)c(C(=O)c2c[nH]c3ncc(-c4ccc(Cl)cc4)cc23)c1F + CC(C)NCC(C(=O)N1CCN(c2ncnc3c2C(C)CC3O)CC1)c1ccc(Cl)cc1	7.66%

----------
# System: LG0703-F948-PDC spheroids with HUVEC/MSC, viability
# test_protocol: Anticancer human tumor LG0703-F948-PDC cell line growth inhibition [IpAb];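 also: spheroids exposed to compounds for seven days before readout; T/C percent relative to DMSO vehicle wells set as 100% viability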
# cond: second compound 0.1 µM; first compound 0.0316 µM; active compounds read low
value_kind: viability, T/C (%)

molecule	experimental_target	result
COc1c(OCCCN2CCOCC2)ccc2c3n(c(=NC(=O)c4cnc(N)nc4)nc12)CCN3 + CC(C)NCC(C(=O)N1CCN(c2ncnc3c2C(C)CC3O)CC1)c1ccc(Cl)cc1	LG0703-F948-PDC spheroids with HUVEC/MSC, viability	47
Cn1ncc(Cl)c1-c1cc(C(=O)NC(CN)Cc2cccc(F)c2)sc1Cl (stereo not drawn) + CCN1CCN(Cc2ccc(Nc3ncc(F)c(-c4cc(F)c5nc(C)n(C(C)C)c5c4)n3)nc2)CC1	LG0703-F948-PDC spheroids with HUVEC/MSC, viability	86.3
C=CC(=O)N1CCN(c2nc(=O)n(-c3c(C)ccnc3C(C)C)c3nc(-c4c(O)cccc4F)c(F)cc23)C(C)C1 (stereo not drawn) + CCN1CCN(Cc2ccc(Nc3ncc(F)c(-c4cc(F)c5nc(C)n(C(C)C)c5c4)n3)nc2)CC1	LG0703-F948-PDC spheroids with HUVEC/MSC, viability	86.6
